- TESTED SYSTEM: T1, Proleukin® (aldesleukin) (human, UniProt P60568 21-153, limits assumed)
- T1 construct: Variant of human wt IL-2 with C145S (C125S on mature IL-2); also called IL-2 (Proleukin®); human IL-2 (Proleukin)
- T1 sequence (P60568 other isoform, or with tags, fused parts or gaps limits assumed): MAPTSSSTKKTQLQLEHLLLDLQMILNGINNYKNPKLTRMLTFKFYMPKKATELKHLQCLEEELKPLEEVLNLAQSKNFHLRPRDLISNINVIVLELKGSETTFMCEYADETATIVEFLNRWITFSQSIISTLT
- ASSAY NOTES: ELISA, coated Proleukin, HEK293F supernatant 1:2
Overview of recorded ELISA value (wash 3x every hour for 4 HRS) for various binders
The figure you give is taken to be in luminescence signal; do not add the unit.

Sample answers from the record:
BINDER | MEASUREMENT
Antibody No: 7 (antibody, human IgG1, kappa, N297A, V domains shown, VK M33L; HEK293F supernatant) VH: EVQLVQSGAEVKKPGESLKISCKGSGYAFTNYLIEWVRQMPGKGLEWMGVINPGSGGTNYNEKFKGQVTISADKSISTAYLQWSSLKASDTAMYYCARWRGEGYYAYYDVWGQGTTVTVSS VL: AIRLTQSPSSFSASTGDRVTITCKASQSVDYQGDSYLNWYQQKPGKAPKLLIYAASNLESGVPSRFSGSGSGTDFTLTISSLQSEDFATYYCQQSNEDPYTFGGGTKVEIKR | 6360
Antibody No: 16 (antibody, human IgG1, kappa, N297A, V domains shown, VK WT; HEK293F supernatant) VH: EVQLVQSGAEVKKPGESLKISCKGSGYAFTNYLIEWVRQMPGKGLEWMGVINPGSGGTYYNEKFKGQVTISADKSISTAYLQWSSLKASDTAMYYCARWRGEGYYAYYDVWGQGTTVTVSS VL: AIRLTQSPSSFSASTGDRVTITCKASQSVDYQGDSYMNWYQQKPGKAPKLLIYAASNLESGVPSRFSGSGSGTDFTLTISSLQSEDFATYYCQQSNEDPYTFGGGTKVEIKR | 9810
Antibody No: 14 (antibody, human IgG1, kappa, N297A, V domains shown, VH N58Y; VK A50T; HEK293F supernatant) VH: EVQLVQSGAEVKKPGESLKISCKGSGYAFTNYLIEWVRQMPGKGLEWMGVINPGSGGTYYNEKFKGQVTISADKSISTAYLQWSSLKASDTAMYYCARWRGEGYYAYFDVWGQGTTVTVSS VL: AIRLTQSPSSFSASTGDRVTITCKASQSVDYQGDSYMNWYQQKPGKAPKLLIYTASNLESGVPSRFSGSGSGTDFTLTISSLQSEDFATYYCQQSNEDPYTFGGGTKVEIKR | 7200
Antibody No: 9 (antibody, human IgG1, kappa, N297A, V domains shown, VK A50T; HEK293F supernatant) VH: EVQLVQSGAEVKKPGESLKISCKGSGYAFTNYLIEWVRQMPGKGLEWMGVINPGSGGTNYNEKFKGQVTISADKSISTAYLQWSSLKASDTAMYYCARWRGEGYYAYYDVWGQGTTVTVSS VL: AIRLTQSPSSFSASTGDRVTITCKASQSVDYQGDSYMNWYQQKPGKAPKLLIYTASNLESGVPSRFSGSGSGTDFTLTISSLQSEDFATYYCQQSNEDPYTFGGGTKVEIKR | 1430
Antibody No: 4 (antibody, human IgG1, kappa, N297A, V domains shown, VH WT; VK A50T; HEK293F supernatant) VH: EVQLVQSGAEVKKPGESLKISCKGSGYAFTNYLIEWVRQMPGKGLEWMGVINPGSGGTNYNEKFKGQVTISADKSISTAYLQWSSLKASDTAMYYCARWRGEGYYAYFDVWGQGTTVTVSS VL: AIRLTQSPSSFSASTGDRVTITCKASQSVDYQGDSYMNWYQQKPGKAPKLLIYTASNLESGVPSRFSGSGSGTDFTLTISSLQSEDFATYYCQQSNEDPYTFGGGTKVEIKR | 1990
Antibody No: 17 (antibody, human IgG1, kappa, N297A, V domains shown, VK M33L; HEK293F supernatant) VH: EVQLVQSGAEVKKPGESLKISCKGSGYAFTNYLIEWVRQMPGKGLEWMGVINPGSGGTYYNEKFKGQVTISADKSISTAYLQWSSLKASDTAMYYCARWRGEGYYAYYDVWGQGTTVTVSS VL: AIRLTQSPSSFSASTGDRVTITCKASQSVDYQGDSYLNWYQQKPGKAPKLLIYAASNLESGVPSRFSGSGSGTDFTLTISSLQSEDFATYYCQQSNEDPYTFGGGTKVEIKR | 2820

Field: next binder
Ask: Specify reported ELISA value (wash 3x every hour for 4 HRS) for the binder shown: Antibody No: 21 (antibody, human IgG1, kappa, N297A, V domains shown, VK WT; HEK293F supernatant) VH: EVQLVQSGAEVKKPGESLKISCKGSGYAFSNYLIEWVRQMPGKGLEWMGVINPGSGGTNYNEKFKGQVTISADKSISTAYLQWSSLKASDTAMYYCARWRGEGYYAYYDVWGQGTTVTVSS VL: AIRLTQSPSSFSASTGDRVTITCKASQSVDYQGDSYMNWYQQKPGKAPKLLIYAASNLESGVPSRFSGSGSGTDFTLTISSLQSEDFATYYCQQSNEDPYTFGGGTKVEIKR
Reply: 1840
